- Test system: 817829-284-R-J1-PDC multi-cell spheroid viability;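 also: spheroids exposed to agents for seven days before readout; percent of vehicle DMSO control viability which is 100%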
- Assay overview: Anticancer human tumor 817829-284-R-J1-PDC patient-derived colon adenocarcinoma cell line growth inhibition [PI3K]
- Condition summary: second compound 0.0316 µM; first compound 1 µM; hits give low values
- Text: Combinatorial screen of targeted agents with the PI3K inhibitors inavolisib, alpelisib, duvelisib, and copanlisib in multi-cell type tumor spheroids A high-throughput screen of multi-cell type tumor spheroids was designed to identify active combinations of targeted small molecules and PI3K pathway inhibitors. […] Compounds. […] If the clinical Cmax for an agent had not been determined, the highest concentration tested was 10 microM. […]
Please provide measured viability, T/C for the entries that follow.
Numbers only, in %.

Sample answers from the record:
Documented viability, T/C of Cn1ncc(Cl)c1-c1cc(C(=O)NC(CN)Cc2cccc(F)c2)sc1Cl (stereo not given) + CC(Nc1ccc2c(c1)OCCn1cc(N3C(=O)OCC3C(F)F)nc1-2)C(N)=O : 16.5

Sure, the documented viability, T/C for C[C@@H](NC(=O)c1ncnc(N)c1Cl)c1ncc(C(=O)Nc2cc(C(F)(F)F)c(Cl)cn2)s1 + Cc1nc(NC(=O)N2CCCC2C(N)=O)sc1-c1ccnc(C(C)(C)C(F)(F)F)c1 is 68.5

# molecule CCN1CCN(Cc2ccc(Nc3ncc(F)c(-c4cc(F)c5nc(C)n(C(C)C)c5c4)n3)nc2)CC1 + Cc1nc(NC(=O)N2CCCC2C(N)=O)sc1-c1ccnc(C(C)(C)C(F)(F)F)c1 ; its viability, T/C = 42.1

// for each molecule below, give its viability, T/C
1. CC(Cn1ccc(-c2ccc(C#N)c(Cl)c2)n1)NC(=O)c1cc(C(C)O)[nH]n1 (stereo not given) + COc1c(OCCCN2CCOCC2)ccc2c3n(c(=NC(=O)c4cnc(N)nc4)nc12)CCN3
2. C[C@@H](NC(=O)c1ncnc(N)c1Cl)c1ncc(C(=O)Nc2cc(C(F)(F)F)c(Cl)cn2)s1 + COc1c(OCCCN2CCOCC2)ccc2c3n(c(=NC(=O)c4cnc(N)nc4)nc12)CCN3
3. C=CC(=O)N1CCN(c2nc(=O)n(-c3c(C)ccnc3C(C)C)c3nc(-c4c(O)cccc4F)c(F)cc23)C(C)C1 (stereo not given) + Cc1nc(NC(=O)N2CCCC2C(N)=O)sc1-c1ccnc(C(C)(C)C(F)(F)F)c1
4. CCCS(=O)(=O)Nc1ccc(F)c(C(=O)c2c[nH]c3ncc(-c4ccc(Cl)cc4)cc23)c1F + CC(Nc1ccc2c(c1)OCCn1cc(N3C(=O)OCC3C(F)F)nc1-2)C(N)=O
5. Cn1ncc(Cl)c1-c1cc(C(=O)NC(CN)Cc2cccc(F)c2)sc1Cl (stereo not given) + COc1c(OCCCN2CCOCC2)ccc2c3n(c(=NC(=O)c4cnc(N)nc4)nc12)CCN3
6. CCN1CCN(Cc2ccc(Nc3ncc(F)c(-c4cc(F)c5nc(C)n(C(C)C)c5c4)n3)nc2)CC1 + COc1c(OCCCN2CCOCC2)ccc2c3n(c(=NC(=O)c4cnc(N)nc4)nc12)CCN3

67.5
57.1
77
32.1
20.9
48.2

# map each molecule to its viability, T/C
1. CC1(C)CCC(CN2CCN(c3ccc(C(=O)NS(=O)(=O)c4ccc(NCC5CCOCC5)c([N+](=O)[O-])c4)c(Oc4cnc5[nH]ccc5c4)c3)CC2)=C(c2ccc(Cl)cc2)C1 + Cc1nc(NC(=O)N2CCCC2C(N)=O)sc1-c1ccnc(C(C)(C)C(F)(F)F)c1
2. CNC(=O)c1ccc(N2C(=S)N(c3ccc(C#N)c(C(F)(F)F)c3)C(=O)C2(C)C)cc1F + CC(Nc1ccc2c(c1)OCCn1cc(N3C(=O)OCC3C(F)F)nc1-2)C(N)=O
3. CC1(C)CCC(CN2CCN(c3ccc(C(=O)NS(=O)(=O)c4ccc(NCC5CCOCC5)c([N+](=O)[O-])c4)c(Oc4cnc5[nH]ccc5c4)c3)CC2)=C(c2ccc(Cl)cc2)C1 + COc1c(OCCCN2CCOCC2)ccc2c3n(c(=NC(=O)c4cnc(N)nc4)nc12)CCN3
4. CC1(C)CCC(CN2CCN(c3ccc(C(=O)NS(=O)(=O)c4ccc(NCC5CCOCC5)c([N+](=O)[O-])c4)c(Oc4cnc5[nH]ccc5c4)c3)CC2)=C(c2ccc(Cl)cc2)C1 + CC(Nc1ccc2c(c1)OCCn1cc(N3C(=O)OCC3C(F)F)nc1-2)C(N)=O
5. CC(Cn1ccc(-c2ccc(C#N)c(Cl)c2)n1)NC(=O)c1cc(C(C)O)[nH]n1 (stereo not given) + Cc1nc(NC(=O)N2CCCC2C(N)=O)sc1-c1ccnc(C(C)(C)C(F)(F)F)c1
6. CCCS(=O)(=O)Nc1ccc(F)c(C(=O)c2c[nH]c3ncc(-c4ccc(Cl)cc4)cc23)c1F + COc1c(OCCCN2CCOCC2)ccc2c3n(c(=NC(=O)c4cnc(N)nc4)nc12)CCN3

1: 42.6; 2: 56.7; 3: 60.1; 4: 65.3; 5: 82.5; 6: 64.1

The measured values listed here are drawn from PubChem BioAssay AID1963969.
